Reference source for all entries: patent US20060173183A1

pIC50: −log10 of the molar value.
Record type: pIC50 measurement. Applies to: MMP-13 (Homo sapiens, UniProt P45452)

Memo: Cc1cc(CNC(=O)c2cc(C(=O)N[C@H]3CCc4cc(-c5nnn[nH]5)ccc43)ncn2)ccc1F , reported pIC50: < 8.30

Memo: COc1cc(CNC(=O)c2cc(C(=O)N[C@H]3CCc4c3ccc(C(=O)O)c4C)ncn2)ccc1F , reported pIC50: > 8.30

Memo: COc1cccc(CNC(=O)c2cc(C(=O)N[C@H]3CCc4cc(-c5noc(=O)[nH]5)ccc43)ncn2)c1 , reported pIC50: > 8.30

Memo: Cc1cc(CNC(=O)c2cc(C(=O)NC3CCCc4cc(-c5nnn[nH]5)ccc43)ncn2)ccc1F (stereo not drawn) , reported pIC50: < 8.30

Memo: Cc1c(-c2nnn[nH]2)ccc2c1CC[C@@H]2NC(=O)c1cc(C(=O)NCc2ccc3c(c2)CN(c2c(N)c(=O)c2=O)CC3)ncn1 , reported pIC50: > 8.30

Memo: Cc1cc(CNC(=O)c2cc(C(=O)N[C@H]3CCc4c3ccc(C(=O)O)c4C)ncn2)ccc1F , reported pIC50: > 8.30
